# assayed.target: GoxA (Pseudoalteromonas luteoviolacea)
# Sequence (A0A161XU12 1-816): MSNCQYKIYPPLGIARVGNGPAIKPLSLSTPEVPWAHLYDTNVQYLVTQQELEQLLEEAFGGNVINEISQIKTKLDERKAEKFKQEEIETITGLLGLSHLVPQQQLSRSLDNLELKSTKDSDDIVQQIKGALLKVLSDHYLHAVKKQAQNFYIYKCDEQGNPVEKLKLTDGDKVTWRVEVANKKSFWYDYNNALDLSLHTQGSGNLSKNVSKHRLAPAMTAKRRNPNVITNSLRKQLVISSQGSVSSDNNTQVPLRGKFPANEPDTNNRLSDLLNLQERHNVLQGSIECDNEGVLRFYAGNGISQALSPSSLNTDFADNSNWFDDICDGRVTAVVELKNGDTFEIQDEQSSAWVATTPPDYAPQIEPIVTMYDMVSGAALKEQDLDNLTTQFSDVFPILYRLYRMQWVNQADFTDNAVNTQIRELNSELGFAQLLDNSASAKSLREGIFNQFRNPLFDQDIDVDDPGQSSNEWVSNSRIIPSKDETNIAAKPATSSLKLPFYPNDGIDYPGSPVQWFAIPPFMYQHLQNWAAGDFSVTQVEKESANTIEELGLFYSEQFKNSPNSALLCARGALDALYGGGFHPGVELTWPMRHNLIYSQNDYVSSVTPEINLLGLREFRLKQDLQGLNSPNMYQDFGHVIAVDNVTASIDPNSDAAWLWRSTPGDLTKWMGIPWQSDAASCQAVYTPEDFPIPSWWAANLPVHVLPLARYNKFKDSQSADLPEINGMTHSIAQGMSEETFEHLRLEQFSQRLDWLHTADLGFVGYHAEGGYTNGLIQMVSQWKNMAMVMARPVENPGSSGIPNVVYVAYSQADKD
# assay.notes: anaerobic absorbance titration at […] nm, fit to allosteric binding equation
test.readout: Kd (µM)

1. NCC(=O)O 103

Values compiled from paper PMC6537893.
